Origin of values: PubChem BioAssay

protocolDescription: modulators of HCV replicon luciferase signal, primary screen, HCV replication inhibitor project, Huh7 cells, luciferase reporter (AID 1109);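 note: huh7 hepatoma cells harbouring a luciferase neomycin HCV replicon reporter; luciferase luminescence as measure of HCV replicon replication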
setupConditions: 48 h, higher = more signal
experimentalReadout: z-score
Answers are plain numbers.

molecule: CCN1C(=O)C2CC(=O)C3C(CN(S(=O)(=O)c4ccc(C)cc4)C3c3ccc(C)cc3)C2C1=O (stereo unspecified)
z-score: -2.44
--
molecule: COCCCNC(=O)[C@@]1(c2ccc([N+](=O)[O-])cc2)CC(=O)N(C2CCCCC2)[C@@H]1c1ccc(CO)cc1I
z-score: -1.9
--
molecule: COc1cccc(C)c1NC(=O)O[C@H]1[C@H](OC(=O)Nc2ccccc2)[C@@H](OC(=O)Nc2ccccc2)[C@@H](OC)O[C@@H]1CO
z-score: -2.72

// for each molecule in input: emit z-score
1. OCCCc1cc[n+](Cc2cc3c(cc2Br)OCO3)cc1
2. COCCCNC(=O)[C@@]1(Cc2ccccc2I)c2ccccc2C(=O)N(Cc2ccccc2C(F)(F)F)[C@H]1c1ccc(CO)cc1

1.05
-0.594

List reported z-score for each of these molecules:
1. C=C(C(=O)CC[C@@H](OC(=O)c1ccccc1-c1ccccc1C(=O)O)c1ccc(OCCO)cc1)C(C)C
2. O=C(NCCN1CCOCC1)[C@@H]1c2ccccc2C(=O)N(CC23CC4CC(CC(C4)C2)C3)[C@H]1c1ccc(CO)cc1
3. COc1ccc(CCNC(=O)[C@@H]2c3ccccc3C(=O)N(C(C)C)[C@H]2c2ccc(CO)cc2)cc1
4. CCc1cccc(NC(=O)O[C@H]2[C@H](OC(=O)Nc3ccccc3-c3ccccc3)[C@H](OC(=O)Nc3ccccc3-c3ccccc3)[C@@H](OC)O[C@@H]2CO)c1
5. [N-]=[N+]=NCc1ccccc1[C@H]1OC(c2ccc(OCCCO)cc2)=N[C@@]1(Cc1ccccc1N=[N+]=[N-])C(=O)O

1: -2.58; 2: -2.21; 3: -1.41; 4: -1.95; 5: -0.304

Lab note: each molecule below needs its z-score filled in.
1. N#Cc1ccc(NN2C(C(O)c3ccc(B(O)O)cc3)C=CC3CN(c4ccccc4)C(=O)C32)cc1 (stereo unspecified)
2. [N-]=[N+]=NCc1ccccc1[C@H]1OC(c2ccc(OCCCO)cc2)=N[C@@]1(CCS(=O)(=O)c1ccccc1)C(=O)O
3. COCCCNC(=O)[C@]1(Cc2ccccc2CN=[N+]=[N-])N=C(c2ccc(OCCCO)cc2)O[C@@H]1c1ccccc1N=[N+]=[N-]

1: 0.277; 2: -1.98; 3: -2.06

Return reported z-score values for all items listed beneath this line.
1. CCOC(=O)C[C@H]1[C@H](OC(=O)c2cc3ccccc3oc2=O)[C@@H](NC(=O)c2ccc(-c3ccccc3)cc2)c2cc(OCCCO)ccc2N1C(=O)Cc1ccc(OC)cc1
2. C=CC[C@H](O)c1ccc(O)c(F)c1
3. CN(C)CCCC[C@@H]1NC(=O)[C@H]2C[C@@H](C(=O)NCCCCCCNC(=O)CS)[C@@H](c3cccc(OCCO)c3)N2C1=O

1: -0.971; 2: -1.74; 3: 0.0145

* * *

assaySystem: Focal adhesion kinase 1 (Homo sapiens)
protocolDescription: small-molecule microarray binders of FAK, primary screen, biochemical, 635/667 nm fluorescence, BSA, DTT (AID 1130);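 note: composite of spot emission at 667 nm and signal to noise over triplicate slides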
setupConditions: PTK2 binding, 635 nm fluorescence, higher = more signal
experimentalReadout: composite z-score
Answers are plain numbers.

molecule: CC1CC/C=C\[C@H]2OC34C=CCN(C(C)C)C(=O)[C@H]3N(C(C)CO)C(=O)[C@@H]4C2C(=O)O1 (some centres not stated)
assaySystem: Focal adhesion kinase 1 (Homo sapiens)
reportedValue: -0.205
--
molecule: C=C(CCCC)/C(=C/C[C@@H](OC(C)=O)c1cccc(OCCO)c1)c1cc(C(=O)OC)ccc1OC
assaySystem: Focal adhesion kinase 1 (Homo sapiens)
reportedValue: 0.0738
--
molecule: CCCCC(=C=CC[C@H](O)c1ccccc1OCCO)CCO
assaySystem: Focal adhesion kinase 1 (Homo sapiens)
reportedValue: 0.0679

Each molecule below has a recorded value; state its composite z-score.
1. C=CCOC(=O)[C@H]1[C@@H]2C(=O)O[C@@H](c3ccccc3)[C@@H](c3ccccc3)N2[C@@H](c2ccc(OCCOC(=O)[C@H]3C[C@H]4C(=O)NCC(=O)N4[C@H]3c3cccc(OCCO)c3)cc2)[C@]12C(=O)Nc1ccc(I)cc12
2. CN(C)C(=O)[C@]1(CCS(=O)(=O)c2ccccc2)N=C(c2ccc(OCCCO)cc2)O[C@@H]1c1ccccc1CN=[N+]=[N-]
3. C[C@]1(C(=O)NC2CC2)c2ccccc2C(=O)N(Cc2cc(F)cc(C(F)(F)F)c2)[C@H]1c1ccc(CO)cc1
4. CCOC(=O)C[C@H]1[C@H](OC(=O)c2ccc(-c3ccccc3)cc2)[C@@H](NC(=O)C2CCCCC2)c2cc(OCCCO)ccc2N1C(=O)Cc1ccc(OC)cc1

1: 0.835; 2: 1.08; 3: -0.695; 4: 0.106

* * *

protocolDescription: E. coli acrAB mutant growth effects, primary screen, E. coli filamentation inducers, strain DRC39, OD650, 48 h (AID 1179);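 note: screen aims at cell division blockers that make cells filament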
setupConditions: E. coli DRC39 delta-acrAB growth, higher = more signal, called active from +8 up or from −8 down
experimentalReadout: z-score
Answers are plain numbers.

Field: example entries. Status: answers known.
molecule: CC[C@H]1C2=C3C(CC[C@H]4C(OCc5ccc(F)cc5C(F)(F)F)OC[C@](C)([C@@H]34)N(C(=O)OC(C)(C)C)C2)C(COC(C)=O)C1COC(C)=O (stereo partly drawn)
z-score: -0.539
--
molecule: COCCOC(=O)N1C(=O)[C@@]2(c3ccccc31)[C@H](C(=O)Nc1nc3ccccc3s1)[C@H]1C(=O)O[C@H](c3ccccc3)[C@H](c3ccccc3)N1[C@@H]2c1ccccc1OCCO
z-score: -0.315

GET /values?readout=z-score&item= CC[C@@H](O[Si](C#C[Si](C(C)C)(C(C)C)C(C)C)(C(C)C)C(C)C)c1cn([C@H](C)c2ccccc2)nn1
0.142

* * *

Test system: XIP peptide (Xip251-270)
protocolDescription: small-molecule binders of XIP peptide, primary screen, biochemical, small-molecule microarray, fluorescence 635/667 nm, 0.5 µg/mL protein (AID 1183)
setupConditions: small-molecule microarray binding, fluorescence 635 nm; higher = more signal
Please respond with reported composite z-score for every item in the list.
Answers are plain numbers.

molecule: O=C1C[C@@](C(=O)NCC(F)(F)F)(c2ccc([N+](=O)[O-])cc2)[C@@H](c2ccc(CO)cc2I)N1CC12CC3CC(CC(C3)C1)C2
composite z-score: 0.797

molecule: O=C1O[C@@H](c2ccccc2)[C@@H](c2ccccc2)N2[C@@H](c3ccc(OCCO)cc3)[C@]3(C(=O)Nc4ccc(C#CC5=CCCCC5)cc43)[C@@H](C(=O)Nc3nc4ccccc4s3)[C@H]12
composite z-score: 0.646

molecule: CC(C)N1CC=CC23O[C@@H]4/C=C\CCCOC(=O)C4[C@H]2C(=O)N(C(C)CO)[C@@H]3C1=O (stereo partly specified)
composite z-score: 0.0575

molecule: CC(C)[Si](C#Cc1ccccc1)(O[C@H](c1ccccc1)c1cn(Cc2ccccc2)nn1)C(C)C
composite z-score: 0.877

molecule: O=C(N1CCOCC1)[C@]1(CCS(=O)(=O)c2ccccc2)N=C(c2ccc(OCCCO)cc2)O[C@@H]1c1ccccc1
composite z-score: 0.717

Now for a further molecule.
composite z-score for O=C1O[C@H](c2ccccc2)[C@H](c2ccccc2)N2[C@H]1[C@@H](C(=O)N1CCN(c3ncccn3)CC1)[C@]1(C(=O)Nc3ccc(C#CC4(O)CCCCCC4)cc31)[C@H]2c1ccc(O)cc1 ?
0.817

* * *

protocolDescription: binders of probe aFSTL3 on microarray, primary screen, stem cell growth factor project, biochemical, small-molecule microarray, fluorescence 635/667 (AID 1064);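 note: measures binding of the biotinylated anti-FSTL3 antibody to printed compounds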
setupConditions: higher = more signal
Could you please report measured composite z-score for the items listed next?

compound: C=C(COC)C(=O)CC[C@H](OC(C)=O)c1ccccc1OCCO
composite z-score: -0.0661
//
compound: O=C1C[C@@](C(=O)NCC(F)(F)F)(c2ccc([N+](=O)[O-])cc2)[C@@H](c2ccc(CO)cc2I)N1CC12CC3CC(CC(C3)C1)C2
composite z-score: -0.405
//
compound: CC1C2C(CCCO)=CC(C3C(=O)N(C(N)=O)C(=O)C23)N1Cc1cccc(OC(F)(F)F)c1 (centres undefined)
composite z-score: -0.261
//
compound: COCCOC(=O)N1C(=O)[C@@]2(c3cc(C#CC4(O)CCCCCC4)ccc31)[C@H](C(N)=O)[C@H]1C(=O)O[C@H](c3ccccc3)[C@H](c3ccccc3)N1[C@@H]2c1ccc(OCCO)cc1
composite z-score: -0.243
//
compound: CC(C)[Si](C#Cc1ccccc1)(O[C@H](c1ccccc1)c1cn(Cc2ccccc2)nn1)C(C)C
composite z-score: -0.527

Look up composite z-score for the entries below, preserving their order.
1. CCCCCCc1nc(-c2ccc(OC)nc2)c(C)c2c1[Si](C(C)C)(C(C)C)OC2
2. O=C/C=C/c1ccc(-c2ccccc2)cc1

[-0.314, 0.4]

Items follow; give composite z-score for each.
1. COc1ccc(C(=O)Nc2ccc(CN3C(=O)[C@]4(O[C@H](CC(=O)N(CCO)Cc5ccccc5)[C@@H]([Si](C)(C)c5ccc(OC)cc5)[C@@H]4C)c4ccccc43)cc2)cc1
2. COC(=O)[C@@]1(Cc2ccc(OC)cc2)[C@H]2c3cc(C(=O)N(C)C)n(Cc4c(CO)[nH]cc(C)c4=O)c3C[C@H]2CN1C(=O)c1ccccc1
3. COC(=O)C(CC#Cc1ccc2c(c1)[C@]1(C(=O)N2)[C@H](c2ccccc2OCCO)N2[C@H](c3ccccc3)[C@H](c3ccccc3)OC(=O)[C@H]2[C@@H]1C(=O)N1CCN(c2ncccn2)CC1)C(=O)OC
4. [N-]=[N+]=NCc1ccccc1[C@H]1OC(c2ccc(OCCCO)cc2)=N[C@@]1(CCS(=O)(=O)c1ccccc1)C(=O)NCCN1CCOCC1
5. C[C@]1(C(=O)NCC(F)(F)F)c2ccccc2C(=O)N(Cc2cc(C(F)(F)F)cc(C(F)(F)F)c2)[C@H]1c1ccc(CO)cc1
6. CC(=O)NCCCC[C@@H]1NC(=O)[C@H]2C[C@@H](C(=O)O)[C@@H](c3cccc(OCCO)c3)N2C1=O
7. O=C1O[C@H](c2ccccc2)[C@H](c2ccccc2)N2[C@H]1[C@@H](C(=O)O)[C@]1(C(=O)Nc3ccc(C#CC4(O)CCCCCC4)cc31)[C@H]2c1ccccc1OCCO

-0.284
0.466
-0.35
-0.0144
0.227
-0.318
-0.304
